# tested-system: Aβ42 (Homo sapiens, UniProt P05067)
# Sequence (P05067 672-713): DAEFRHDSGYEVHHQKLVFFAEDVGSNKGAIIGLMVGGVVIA
# assay-protocol: Th-T (thioflavin-T) assay of Aβ42 aggregation
# Type: biochemical
# details: reading M107; compound at 50 (head suffix _50)
property-measured: Th-T fluorescence, mean of three wells (Fig. 7a)

INSERT INTO results (molecule, endpoint_value) VALUES
  ('C=C1CCC2C(C)(CCC=C(C)C)C(O)CCC2(C)C1Cc1c(OC)oc(CO)c(C(=O)OC)c1=O (centres unmarked) [Compound 13]', 0.4755),
  ('C=C1CC[C@@H]2[C@](C)(CC[C@H]3O[C@H](C=C(C)C)C[C@@]23C)[C@@H]1Cc1c(OC)oc(CO)c(C)c1=O [Compound 20]', 2.093),
  ('C=C1CCC2C(C)(CCC=C(C)C)C(O)CCC2(C)C1Cc1c(OC)oc(CO)c(C)c1=O (centres unmarked) [Compound 12]', 1.42),
  ('C=C1CCC2C(C)(CCC=C(C)C)C(O)CCC2(C)C1Cc1c(OC)oc(C)c(C(=O)OC)c1=O (centres unmarked) [Compound 14]', 1.263),
  ('C=C1CC[C@@H]2[C@](C)(CC[C@H]3O[C@H](C=C(C)C)C[C@@]23C)[C@@H]1Cc1c(OC)oc(CO)c(C(=O)OC)c1=O [Compound 21]', 0.4795);
